Reference source for all entries: the RNAGym collection of RNA variant scans (doi:10.1101/gad.245936.114)

B1: tRNA (parent)
chain: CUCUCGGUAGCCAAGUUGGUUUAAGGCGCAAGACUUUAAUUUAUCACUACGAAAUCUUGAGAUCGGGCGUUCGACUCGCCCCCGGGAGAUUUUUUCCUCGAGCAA

# Variants of: B1
# Assay procedure: nonsense suppression (GFP-seq) (ratio to wild type); higher = more function; SUP4oc tRNA, yeast GFP reporter sort-seq
Variants at the floor of the assay were thinned out.
Recorded metric: nonsense suppression
Numbers only.

1) A31G A54U = 0.627
2) A13C C72U = 0.23
3) C1U U4A = 0.0473

Fill in nonsense suppression for each of the 6 variants listed.
1. A9G C72U
2. U4C G6U G28A
3. U63G A87U
4. A30U G85U
5. A13C C77U
6. A13G A30G

Reply:
[0.0591, 0.427, 0.0518, 0.0315, 0.0493, 0.105]
